Measured LIPASE values are reported for all entries that follow.
Species: Rattus norvegicus
PROTOCOL_DETAILS: DrugMatrix - Regimen: Daily Repeat
Type: toxicity, organism-based, Sprague-Dawley
Parameters: regimen Daily Repeat, gender Male, age 6-8 weeks
RUN_CONDITIONS: in vivo, po, 0 mg/kg, 120 h, tissue Plasma, route oral GAVAGE, dose level Control, time 5 day, vehicle 100 % WATER
OUTCOME_MEASURE: LIPASE

>  <COMPOUND>
NCC1(CC(=O)O)CCCCC1 [GABAPENTIN]

>  <OBSERVED_RESULT>
8.33 u/L

$$$$
>  <COMPOUND>
Fc1ccc([C@@H]2CCNC[C@H]2COc2ccc3c(c2)OCO3)cc1 [PAROXETINE]

>  <OBSERVED_RESULT>
11.5 u/L

$$$$
>  <COMPOUND>
CC(C)(S)[C@@H](N)C(=O)O [PENICILLAMINE]

>  <OBSERVED_RESULT>
9 u/L

$$$$
>  <COMPOUND>
Cn1cnc([N+](=O)[O-])c1Sc1ncnc2nc[nH]c12 [AZATHIOPRINE]

>  <OBSERVED_RESULT>
11.67 u/L

$$$$
>  <COMPOUND>
O=C1NC(=O)C(c2ccccc2)(c2ccccc2)N1 [PHENYTOIN]

>  <OBSERVED_RESULT>
9.83 u/L

$$$$
>  <COMPOUND>
NC(=O)c1ncn([C@@H]2O[C@H](CO)[C@@H](O)[C@H]2O)n1 [RIBAVIRIN]

>  <OBSERVED_RESULT>
9.17 u/L

$$$$
>  <COMPOUND>
CNCCC=C1c2ccccc2CCc2ccccc21 [NORTRIPTYLINE]

>  <OBSERVED_RESULT>
9.83 u/L

$$$$
>  <COMPOUND>
CN1CCN(C(=O)OC2c3nccnc3C(=O)N2c2ccc(Cl)cn2)CC1 (stereo unspecified) [ZOPICLONE]

>  <OBSERVED_RESULT>
10.5 u/L

$$$$
>  <COMPOUND>
CC1(C)S[C@@H]2[C@H](NC(=O)[C@H](N)c3ccc(O)cc3)C(=O)N2[C@H]1C(=O)O [AMOXICILLIN]

>  <OBSERVED_RESULT>
9.17 u/L

$$$$
>  <COMPOUND>
CC(CCc1ccccc1)NCC(O)c1ccc(O)c(C(N)=O)c1 (stereo unspecified) [LABETALOL]

>  <OBSERVED_RESULT>
10.17 u/L

$$$$
>  <COMPOUND>
C[C@]12Cc3c[nH]nc3C[C@@H]1CC[C@@H]1[C@@H]2CC[C@@]2(C)[C@H]1CC[C@]2(C)O [STANOZOLOL]

>  <OBSERVED_RESULT>
11.5 u/L

$$$$
>  <COMPOUND>
COc1cccc(C2(O)CCCCC2CN(C)C)c1 (stereo unspecified) [TRAMADOL]

>  <OBSERVED_RESULT>
11.5 u/L

$$$$
>  <COMPOUND>
COc1cc2c(N3CCN(C(=O)Nc4ccc(OC(C)C)cc4)CC3)ncnc2cc1OCCCN1CCCCC1 [TANDUTINIB]

>  <OBSERVED_RESULT>
4.83 u/L

$$$$
>  <COMPOUND>
Nc1ccc(S(=O)(=O)Nc2ccnn2-c2ccccc2)cc1 [SULFAPHENAZOLE]

>  <OBSERVED_RESULT>
11.5 u/L

$$$$
>  <COMPOUND>
CC1COc2c(N3CCN(C)CC3)c(F)cc3c(=O)c(C(=O)O)cn1c23 (stereo unspecified) [OFLOXACIN]

>  <OBSERVED_RESULT>
10.17 u/L

$$$$
>  <COMPOUND>
Cc1cc(NS(=O)(=O)c2ccc(N)cc2)no1 [SULFAMETHOXAZOLE]

>  <OBSERVED_RESULT>
10.17 u/L

$$$$
